Reference source for all entries: the supplement of paper PMC6757056

B1: library; a variant is named by its letters at N, in order (parent)
chain: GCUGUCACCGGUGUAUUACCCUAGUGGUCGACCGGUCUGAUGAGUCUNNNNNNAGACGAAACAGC

# Variants of: B1
# run_description: FACS-Seq fitted mean relative fluorescence mCherry/BFP without ligand (log10 relative fluorescence); ligand: hypoxanthine (xanthine aptamer); higher = higher reporter protein expression
# study_conditions: HEK293T, ligand present: no
Label rule, in plain words: FACS-Seq fitted mean (log10) of 0.2 and up is true, under 0.2 is false.

# variant_code, label_value
measured = [
    ("UGACGU", "false"),
    ("GUAUGA", "false"),
    ("UACAUG", "false"),
    ("AUUUGU", "true"),
    ("AGGUCG", "false"),
    ("CUGCGA", "false"),
    ("CGGAGG", "false"),
    ("UUAUUA", "true"),
    ("AGGCCU", "true"),
    ("ACGCGG", "false"),
    ("AUGCGG", "false"),
    ("GUCAAG", "true"),
    ("GCGAGA", "false"),
    ("GAGAAA", "true"),
    ("GUUUUC", "false"),
    ("GGUAGC", "true"),
    ("CUAAGU", "true"),
    ("AAUAGA", "true"),
    ("UACGAA", "false"),
    ("UGAGUC", "false"),
    ("CAAUAC", "true"),
    ("UCUAAA", "true"),
    ("AUGAAA", "true"),
    ("GACAAA", "false"),
    ("GGUGUA", "true"),
    ("CAUGAA", "false"),
    ("UCGGGA", "false"),
    ("AAUCCU", "true"),
    ("GUACAA", "false"),
    ("CGGUAA", "true"),
    ("AAACCA", "false"),
    ("UGUCCU", "true"),
    ("UACGAU", "false"),
    ("UACCAG", "false"),
    ("UUGCCG", "false"),
    ("GCCUUG", "true"),
    ("UCACCU", "true"),
    ("GAACAG", "true"),
    ("AACCGA", "true"),
    ("AAUGGG", "false"),
    ("CGAUAC", "false"),
    ("CGCUGA", "true"),
    ("UUAAAA", "true"),
    ("AGGCAU", "false"),
    ("CGAUUA", "true"),
    ("CAUUAU", "true"),
    ("GGCAGA", "false"),
    ("CUAGUG", "false"),
    ("GACCCG", "false"),
    ("CCGCUA", "true"),
    ("AACUAG", "true"),
    ("CGAUAA", "true"),
]
